System: APAE001 (ATCC27853)
Protocol summary: MIC broth microdilution, APAE001
Format: cell-based, P. aeruginosa
Test parameters: Pseudomonas aeruginosa, ATCC27853, read-out: MIC APAE001, APAE001 is ATCC27853
Observation type: MIC

Value of measured MIC for the entry `O=C(N[C@H](C(=O)NO)C1CC1)c1ccc(C#Cc2ccc(CN3CCOCC3)cc2)cc1` : 2 to 16 µg/mL

Query `C[C@@H](N)[C@H](NC(=O)c1ccc(/C=C/C#Cc2ccc(Cl)cc2)cc1)C(=O)NO` yields MIC of 2 to 16 µg/mL

The compound identified as `C[C@@H](NCC(=O)NC[C@H](NC(=O)c1ccc(C#C/C=C/c2ccccc2)cc1)C(=O)NO)c1ccccc1` registered its MIC at 16 to 64 µg/mL

Sure, the documented MIC for `C[C@@H](N)[C@H](NC(=O)c1ccc(CCc2ccc(CN3CCOCC3)cc2)cc1)C(=O)NO` is 2 to 16 µg/mL

// recorded MIC for `COC(=O)[C@@H](NC(=O)c1ccc(C#C/C(F)=C/c2ccc(CN3CCOCC3)cc2)cc1)[C@@H](C)O` : 2 to 16 µg/mL

Consider now this further compound.
// MIC value for `NC[C@H](NC(=O)c1ccc(C#C/C=C/c2ccc(CNC3CC3)cc2)cc1)C(=O)NO` : < 2 µg/mL

###

MIC listing for selected compounds.
Test system: AABA1060 (clinical isolate of Acinetobacter baumannii)
Protocol summary: MIC broth microdilution, AABA1060
Format: cell-based
Test parameters: Acinetobacter baumannii, read-out: MIC AABA1060

Worked cases, MIC given:
MIC for AABA1060 (clinical isolate of Acinetobacter baumannii) with input `C[C@@H](N)[C@H](NC(=O)c1ccc(C#Cc2ccc(COC3CC3)cc2)cc1)C(=O)NO` equals 2 to 16 µg/mL

Measured MIC (AABA1060 (clinical isolate of Acinetobacter baumannii)), entry `C[C@H](N)[C@H](NC(=O)c1ccc(C#Cc2ccc(CNC3CC3)cc2)cc1)C(=O)NO` : 16 to 64 µg/mL

Per the reported AABA1060 (clinical isolate of Acinetobacter baumannii) data, `CC(C)(N)[C@@H](NC(=O)c1ccc(C#CC#CC2CC2)cc1)C(=O)NO` has MIC of 16 to 64 µg/mL

Next:
Sample `Cn1cc(C#CC#Cc2ccc(C(=O)N[C@H](C(=O)NO)C(C)(C)N)cc2)cn1` , system: AABA1060 (clinical isolate of Acinetobacter baumannii). Its MIC is < 2 µg/mL

###

System: ASAU001 (laboratory strain of S. aureus, ATCC29213)
Protocol summary: MIC broth microdilution, ASAU001
Format: cell-based
Test parameters: Staphylococcus aureus, ATCC29213, read-out: MIC ASAU001
Observation type: MIC

Field MIC (entry O=C(NC(C(=O)NO)C1CCNC1)c1ccc(C#Cc2ccc(CN3CCOCC3)cc2)cc1 (stereo not shown) ) reads > 64 µg/mL

More entries:
Lookup result for `C[C@@H](O)[C@H](NC(=O)c1ccc(C#Cc2ccc(C(F)(F)F)nc2)cc1)C(=O)NO` ; measured MIC: 16 to 64 µg/mL

Looking up `C[C@@H](N)[C@H](NC(=O)c1ccc(/C=C/C#Cc2ccccc2Cl)cc1)C(=O)NO` , I found its MIC recorded as 2 to 16 µg/mL

In plain terms, `CC(C)(N)[C@H](NC(=O)c1ccc(/C=C/C#Cc2ccc(CNC3CC3)cc2)cc1)C(=O)NO` has a documented MIC of 16 to 64 µg/mL

So, `NC[C@H](NC(=O)c1ccc(C#Cc2ccc(CNC(=O)CCC(=O)O)cc2)cc1)C(=O)NO` ? Its MIC was > 64 µg/mL

###

Listed here: items and their measured MIC.
Tested on: APAE001 (ATCC27853)
Protocol summary: MIC broth microdilution, APAE001
Assay type: cell-based, P. aeruginosa
Test parameters: Pseudomonas aeruginosa, ATCC27853, read-out: MIC APAE001, APAE001 is ATCC27853

Below, each entry is followed by its recorded MIC result.
Kindly note the recorded MIC for `NC[C@H](NC(=O)c1ccc(/C=C/C#Cc2ccc(CNC3CC3)cc2)cc1)C(=O)NO` , which is 2 to 16 µg/mL

The compound listed as `C[C@@H](N)[C@H](NC(=O)c1ccc(C#Cc2ccc(CNCC(C)(C)C)cc2)cc1)C(=O)NO` has a reported MIC of < 2 µg/mL

The recorded MIC for `C[C@H](O)[C@H](NC(=O)c1ccc(C#C/C=C/c2ccc(CNC3CC3)cc2)cc1)C(=O)NO` is 2 to 16 µg/mL

Measured MIC, `C[C@@H](O)[C@H](NC(=O)c1ccc(/C=C/C#Cc2ccc(CNC3CC3)cc2)cc1)C(=O)NO` : 2 to 16 µg/mL

---
Quick note, MIC for `C[C@@H](O)[C@H](NC(=O)c1ccc(SCc2ccc(CN3CCOCC3)cc2)cc1)C(=O)NO` landed at 16 to 64 µg/mL

The recorded MIC for `C[C@@H](N)[C@H](NC(=O)c1ccc(/C=C/C#Cc2ccc(CN3CCOCC3)cc2)cc1)C(=O)NO` is < 2 µg/mL

`C[C@@H](N)[C@H](NC(=O)c1ccc(/C=C/C#Cc2ccccc2F)cc1)C(=O)NO` has a reported MIC of < 2 µg/mL

Memo: `O=C(CNC1CC1)NC[C@H](NC(=O)c1ccc(/C=C/C#Cc2ccc(CO)cc2)cc1)C(=O)NO` , reported MIC: 2 to 16 µg/mL

# compound `NC[C@H](NC(=O)c1ccc(C#C/C=C/c2ccccc2)cc1)C(=O)NO` ; its MIC = 2 to 16 µg/mL

According to the records, this compound `C[C@@H](N)[C@H](NC(=O)c1ccc(/C=C/C#Cc2cccc(Cl)c2)cc1)C(=O)NO` displays MIC of 2 to 16 µg/mL

For reference, reported MIC for `O=C(NO)C1(NS(=O)(=O)c2ccc(C#Cc3ccc(CN4CCOCC4)cc3)cc2)CCCC1` stands at > 64 µg/mL

###

System: AECO001 (ATCC25922)
Protocol summary: MIC broth microdilution, AECO001
Assay type: cell-based, E. coli
Test parameters: Escherichia coli, ATCC25922, read-out: MIC AECO001
Observation type: MIC

MIC value, target or system AECO001 (ATCC25922), for `C[C@@H](O)[C@H](NC(=O)c1ccc(C#CC#CC2CC2)cc1)C(=O)NO` : < 2 µg/mL

Record `CC(C)(N)[C@H](NC(=O)c1ccc(C#C/C=C/c2ccccc2)cc1)C(=O)NO` / AECO001 (ATCC25922), MIC recorded as < 2 µg/mL

Tested on AECO001 (ATCC25922): `CC(C)(N)[C@H](NC(=O)c1ccc(C#Cc2ccccc2)cc1)C(=O)NO` . Observed MIC: < 2 µg/mL

Measured MIC (AECO001 (ATCC25922)), entry `C[C@@H](N)[C@H](NC(=O)c1ccc(C#Cc2ccc(CN3CCC3)cc2)cc1)C(=O)NO` : 16 to 64 µg/mL

Measured MIC for this entry CC(C)C(C(=O)NO)C(=O)Nc1ccc(C#Cc2ccc(CN3CCOCC3)cc2)cc1 (stereo not shown) on AECO001 (ATCC25922): 16 to 64 µg/mL

Item: O=C(NC(C(=O)NO)C1CCNC1)c1ccc(C#Cc2ccc(CN3CCOCC3)cc2)cc1 (stereo not shown) | System: AECO001 (ATCC25922) | MIC: 2 to 16 µg/mL

***
Note to self: MIC of `C[C@@H](O)[C@H](NC(=O)c1ccc(C#CC#Cc2ccc(C(F)(F)F)cc2)cc1)C(=O)NO` with AECO001 (ATCC25922) was < 2 µg/mL

With AECO001 (ATCC25922) as the test system, `CC(C)(O)[C@H](NC(=O)c1ccc(C#Cc2ccc(CN3CCCOCC3)cc2)cc1)C(=O)NO` showed MIC of < 2 µg/mL

# MIC measured on AECO001 (ATCC25922) for item `CC(C)(O)[C@H](NC(=O)c1ccc(C#CC#Cc2ccc(F)cc2)cc1)C(=O)NO` = < 2 µg/mL

With AECO001 (ATCC25922) as the test system, `C[C@@H](O)[C@H](NC(=O)c1ccc(C#CC#Cc2cncn2C)cc1)C(=O)NO` showed MIC of < 2 µg/mL

Reported AECO001 (ATCC25922) MIC for item `C[C@@H](N)[C@H](NC(=O)c1ccc(C#C/C=C/c2cccnc2)cc1)C(=O)NO` was 2 to 16 µg/mL

Lab note: molecule `C[C@@H](O)[C@H](NC(=O)c1ccc(C2CCN(c3ccc(CN4CCOCC4)cc3)CC2)cc1)C(=O)NO` tested on AECO001 (ATCC25922); recorded MIC was > 64 µg/mL

Record `CC(C)(O)[C@H](NC(=O)c1ccc(C#C/C=C/c2ccncc2)cc1)C(=O)NO` ; system AECO001 (ATCC25922); MIC = < 2 µg/mL

Lab note: molecule `C[C@@H](N)[C@H](NC(=O)c1ccc(C#CC#Cc2ccc(CNCC(F)F)cc2)cc1)C(=O)NO` tested on AECO001 (ATCC25922); recorded MIC was < 2 µg/mL
